# credit: patent US9315475B2

- assayed-system: wildtype HIV-1 protease (Human immunodeficiency virus type 1 group M subtype B)
- Construct: the wildtype HIV-1 protease (which was expressed in Escherichia coli); made in house; host or cells: Escherichia coli
- assay: Assay for inhibition of microbial expressed HIV protease (Pepcleav)
- Assay type: biochemical
- conditions-used: wild type HIV-1 protease expressed in E. coli, peptide substrate, pH 5.5; mean of at least two independent experiments; read-out: Pepcleav
pIC50: −log10 of the molar value.

- compound: "COC(=O)N[C@H](C(=O)Nc1ccccc1CC[C@@H]1CN[C@H](CNC(=O)OC2CCOC2)CO1)C(c1ccccc1)c1ccccc1 (some centres unmarked)"
  pIC50: 6.17
- compound: "NC(=O)OC[C@@H]1CO[C@H](CCc2c(F)cncc2NC(=O)[C@@H](N)C(c2ccc(F)cc2)c2ccc(F)cc2)CN1"
  pIC50: 8.16
- compound: "C[C@H](NC(=O)OC[C@@H]1CO[C@H](COc2c(F)cccc2NC(=O)[C@@H](N)C(c2ccc(F)cc2)c2ccc(F)cc2)CN1)c1ccc(F)cc1"
  pIC50: 7.89
- compound: "COC(=O)N[C@H](C(=O)Nc1ccccc1CC[C@@H]1CN[C@H](COC(=O)NCc2cccc3ccncc23)CO1)C(c1ccccc1)c1ccccc1"
  pIC50: 7.55
- compound: "CN[C@H](C(=O)Nc1cncc(F)c1CC[C@@H]1CN[C@H](COC(=O)NCC(F)(F)F)CO1)C(c1ccc(F)cc1)c1ccc(F)cc1"
  pIC50: 7.55

###

- assayed-system: wildtype HIV-1 protease (Human immunodeficiency virus type 1 group M subtype B)
- Construct: the wildtype HIV-1 protease (which was expressed in Escherichia coli); made in house; host or cells: Escherichia coli
- assay: Assay for inhibition of microbial expressed HIV protease (Pepcleav)
- Assay type: biochemical
- conditions-used: wild type HIV-1 protease expressed in E. coli, peptide substrate, pH 5.5; mean of at least two independent experiments; read-out: Pepcleav
pIC50: −log10 of the molar value.
Short version: pIC50 at least 7 is rule met, less is rule not met.

- compound: "COC(=O)N[C@H](C(=O)Nc1ccccc1CC[C@@H]1CN[C@H](CNC(=O)c2c(C)cccc2C)CO1)C(c1ccccc1)c1ccccc1 [Example 57]"
  assigned-category: "rule met"
- compound: "Cc1cccc(NC(=O)[C@@H](N)C(c2ccc(F)cc2)c2ccc(F)cc2)c1CC[C@@H]1CN[C@H](COC(=O)NCC(F)(F)F)CO1 [Example 226]"
  assigned-category: "rule not met"
- compound: "COC(=O)N[C@H](C(=O)Nc1ccccc1CC[C@@H]1CN[C@H](CNC(=O)c2ccccc2Cl)CO1)C(c1ccccc1)c1ccccc1 [Example 55]"
  assigned-category: "rule met"

###

- assayed-system: wildtype HIV-1 protease (Human immunodeficiency virus type 1 group M subtype B)
- Construct: the wildtype HIV-1 protease (which was expressed in Escherichia coli); made in house; host or cells: Escherichia coli
- assay: Assay for inhibition of microbial expressed HIV protease (Pepcleav)
- Assay type: biochemical
- conditions-used: wild type HIV-1 protease expressed in E. coli, peptide substrate, pH 5.5; mean of at least two independent experiments; read-out: Pepcleav
- Method: Assay for Inhibition of Microbial Expressed HIV Protease (“Pepcleav”) Studies of the inhibition of the wildtype HIV-1 protease (which was expressed in Escherichia coli) were carried out with a peptide substrate [Val-Ser-Gln-Asn-(βnaphthyl)Ala-Pro-Ile-Val (SEQ ID NO:1)]. […] The extent of inhibition of the reaction is determined from the peak area of the products.
pIC50: −log10 of the molar value.
Class field: derived from pIC50; ranges bottom = under 7, middle = from 7 up to 8, top = 8 and over

- molecule: "N[C@H](C(=O)Nc1cncc(F)c1CC[C@@H]1CN[C@H](COC(=O)NCC(F)(F)F)CO1)[C@H](c1ccc(F)cc1)c1ccc(Cl)cc1"
  assigned-category: "top"
- molecule: "COC(=O)N[C@H](C(=O)Nc1ccccc1CC[C@@H]1CN[C@H](COC(=O)NC(C2CC2)C(F)(F)F)CO1)C(c1ccccc1)c1ccccc1 (stereo partly shown)"
  assigned-category: "middle"
- molecule: "COc1ccc([C@@H](c2ccccc2)[C@H](N)C(=O)Nc2cncc(F)c2CC[C@@H]2CN[C@H](COC(=O)NCC(F)(F)F)CO2)cc1"
  assigned-category: "top"
- molecule: "N[C@H](C(=O)Nc1cncc(F)c1CC[C@@H]1CN[C@H](COC(=O)NCC(F)(F)F)CO1)[C@H](c1ccccc1)c1ccc(Cl)cc1"
  assigned-category: "top"
- molecule: "O=C(NCC(F)(F)F)OC[C@@H]1CO[C@H](CCc2c(F)cncc2NC(=O)[C@@H](NC(=O)OCC(F)(F)F)C(c2ccc(F)cc2)c2ccc(F)cc2)CN1"
  assigned-category: "bottom"
- molecule: "COCC(=O)Nc1ccccc1CC[C@@H]1CO[C@H](CCc2ccccc2NC(=O)[C@@H](NC(=O)OC)C(c2ccccc2)c2ccccc2)CN1"
  assigned-category: "middle"
- molecule: "COC(=O)N[C@H](C(=O)Nc1ccccc1CC[C@@H]1CN[C@H](COC(=O)NCCN(C)C)CO1)C(c1ccccc1)c1ccccc1"
  assigned-category: "bottom"

###

- assayed-system: wildtype HIV-1 protease (Human immunodeficiency virus type 1 group M subtype B)
- Construct: the wildtype HIV-1 protease (which was expressed in Escherichia coli); made in house; host or cells: Escherichia coli
- assay: Assay for inhibition of microbial expressed HIV protease (Pepcleav)
- Type: biochemical
- conditions-used: wild type HIV-1 protease expressed in E. coli, peptide substrate, pH 5.5; mean of at least two independent experiments; read-out: Pepcleav

- compound: "N[C@H](C(=O)Nc1cncc(F)c1CC[C@@H]1CN[C@H](COC(=O)N[C@@H]2COC[C@@H]2F)CO1)C(c1ccc(F)cc1)c1ccc(F)cc1"
  unit-label: "nM"
  IC50: 12
- compound: "COC(=O)N[C@H](C(=O)Nc1cccc(F)c1CC[C@@H]1CN[C@H](COC(=O)NCC(F)(F)F)CO1)[C@H](c1ccc(F)cc1)c1ccc(OC)cc1"
  unit-label: "nM"
  IC50: 15
- compound: "CN1CCC(NC(=O)OC[C@@H]2CO[C@H](CCc3c(F)cncc3NC(=O)[C@@H](N)C(c3ccc(F)cc3)c3ccc(F)cc3)CN2)C1=O (stereo partly drawn)"
  unit-label: "nM"
  IC50: 7.7

###

- assayed-system: wildtype HIV-1 protease (Human immunodeficiency virus type 1 group M subtype B, UniProt P04585)
- Construct: the wildtype HIV-1 protease (which was expressed in Escherichia coli); made in house; host or cells: Escherichia coli
- assay: Assay for inhibition of microbial expressed HIV protease (Pepcleav)
- Assay type: biochemical
- conditions-used: wild type HIV-1 protease expressed in E. coli, peptide substrate, pH 5.5; mean of at least two independent experiments; read-out: Pepcleav
pIC50: −log10 of the molar value.
endpoint-label: pIC50

- mol: "N[C@H](C(=O)Nc1cncc(F)c1CC[C@@H]1CN[C@H](COC(=O)NCCN2CCCC2)CO1)C(c1ccc(F)cc1)c1ccc(F)cc1"
  reported-value: 6.96
- mol: "C[C@H](NC(=O)OC[C@@H]1CO[C@H](CCc2c(F)cccc2NC(=O)[C@@H](N)C(c2ccc(F)cc2)c2ccc(F)cc2)CN1)c1ccc(F)cc1"
  reported-value: 7.96
- mol: "COC(=O)N[C@H](C(=O)Nc1ccccc1CC[C@@H]1CN[C@H](COC(=O)NCC(F)F)CO1)C(c1ccccc1)c1ccccc1"
  reported-value: 7.07
- mol: "COC(=O)N[C@H](C(=O)Nc1ccccc1CC[C@@H]1CN[C@H](CSc2ccccc2)CO1)C(c1ccccc1)c1ccccc1"
  reported-value: 6.89
- mol: "O=C(C[C@H](c1ccc(F)cc1)c1cncc(F)c1)Nc1cccc(F)c1CC[C@@H]1CN[C@H](COC(=O)NCC(F)(F)F)CO1"
  reported-value: 7.92
- mol: "COc1ccc([C@H](CC(=O)Nc2cccc(F)c2CC[C@@H]2CN[C@H](COC(=O)NCC(F)(F)F)CO2)c2ccc(F)cc2)cc1"
  reported-value: 7.00
